tested on: biotinyl-Leu-oxazolone; assay: self-aminoacylation, catalytic enhancement (BLO) (fold over background); higher = more active; k-Seq, kA / k0A0; sequences stand for … in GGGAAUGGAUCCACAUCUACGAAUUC…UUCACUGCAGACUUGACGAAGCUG
Variants at the floor of the assay were thinned out.
Everything with self-aminoacylation lower than 2 is Not satisfied; everything else, including exactly 2, is Satisfied.

Completed entries (count: 3):
AUUCACUUAGGUAAUCGGGUG [Fam2.2 aminoacylation ribozyme variant]: Satisfied
CCGCACUUCAACCAAUCGGUC [Fam1B.1 aminoacylation ribozyme variant]: Satisfied
ACUCACCUAGGUAAUCGGGUG [Fam2.2 aminoacylation ribozyme variant]: Satisfied

Could you tell me if the measured self-aminoacylation of GUUACUCUGGUCAUCGAGUGA [Fam2.1 aminoacylation ribozyme variant] reaches 2 or more?
Satisfied

Exam item: decide whether the reported self-aminoacylation for AUUCACCUAGGUUCUCGGGUG [Fam2.2 aminoacylation ribozyme variant] is at least 2.
Satisfied

Is reported self-aminoacylation greater than or equal to 2 here: AUUACCCUGGUUAUCAAGUGA [Fam2.1 aminoacylation ribozyme variant]
Satisfied

---

system: biotinyl-Ile-oxazolone; assay: self-aminoacylation, catalytic enhancement (BIO) (fold over background); higher = more active; k-Seq, kA / k0A0; sequences stand for … in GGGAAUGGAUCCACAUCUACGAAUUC…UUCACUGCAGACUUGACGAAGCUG
This sample holds only a part of the variants without activity.
Endpoint Label: self-aminoacylation

Some solved entries appear below for comparison.
AUUUCCCUGGUCAUAGAGUGA [Fam2.1 aminoacylation ribozyme variant]: 4.67
AUUACCCUGUUCAUCGUGUGA [Fam2.1 aminoacylation ribozyme variant]: 3.1
AAAUGUGCUAAUAGUCGCAAG [Fam3.1 aminoacylation ribozyme variant]: 2.12
CUACUUCAAACAGUCGGUCUU [Fam1A.1 aminoacylation ribozyme variant]: 1.1

According to the records, this sequence CUACUUCAAACAAUCAGGCUG [Fam1A.1 aminoacylation ribozyme variant] displays self-aminoacylation of 0.911

get_value(item= AUUACCGUGGUCAUCGCGUGA [Fam2.1 aminoacylation ribozyme variant] , readout=self-aminoacylation) returns 8.94

Query AGUACCCUGGUCAUCGAGCGA [Fam2.1 aminoacylation ribozyme variant] yields self-aminoacylation of 1.94

// self-aminoacylation value for AAGUUUGCUAAUACUCGCUAG [Fam3.1 aminoacylation ribozyme variant] : 0.63

---

tested on: biotinyl-Phe-oxazolone; assay: self-aminoacylation, catalytic enhancement (BFO) (fold over background); higher = more active; k-Seq, kA / k0A0; sequences stand for … in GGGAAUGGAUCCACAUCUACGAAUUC…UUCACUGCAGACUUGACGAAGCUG
Variants at the floor of the assay were thinned out.
Reported self-aminoacylation values are given for each entry in this list.
Reply with the value as a number alone.

Consider the reported self-aminoacylation for these sequences:
AUUACCCUGGUCAUCUAGUGC [Fam2.1 aminoacylation ribozyme variant]: 1.27
AAGUUUUCUAUUAGUCGCAAG [Fam3.1 aminoacylation ribozyme variant]: 2.22

// self-aminoacylation value for CCACACCUCAAGCAAUCAGUC [Fam1B.1 aminoacylation ribozyme variant] : 1.26

self-aminoacylation reading for AUUCACCAAGGUCAUCGGGCG [Fam2.2 aminoacylation ribozyme variant] : 16

Noted for CUACUUCAAGCAAUCGGUCAG [Fam1A.1 aminoacylation ribozyme variant] : its self-aminoacylation reads 2.28

Looking up CUACUUCAAACAUUCGUUCUG [Fam1A.1 aminoacylation ribozyme variant] , I found its self-aminoacylation recorded as 0.513

Notebook: CCACUGCAAACAAUCGGUCUG [Fam1A.1 aminoacylation ribozyme variant] , self-aminoacylation read as 4.13

Given item CCACACUUCAAGCAAACGGUU [Fam1B.1 aminoacylation ribozyme variant] , the value recorded as its self-aminoacylation is 1.41

Record summary for AUUACCCUGGUCAUCGCGUCA [Fam2.1 aminoacylation ribozyme variant] : reported self-aminoacylation = 12.2

// field: self-aminoacylation; key: AUUCACCUAGGUUCUCGGGUG [Fam2.2 aminoacylation ribozyme variant] ; value = 20.4

Record summary for CUACUUCAAACAAUCGGGCCG [Fam1A.1 aminoacylation ribozyme variant] : reported self-aminoacylation = 1.76

For record AAGUUUGCGAAAAGUCGCAAG [Fam3.1 aminoacylation ribozyme variant] the listed self-aminoacylation is 2.82

---

test system: biotinyl-Phe-oxazolone; test: self-aminoacylation, catalytic enhancement (BFO) (fold over background); higher = more active; k-Seq, kA / k0A0; sequences stand for … in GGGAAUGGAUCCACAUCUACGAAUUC…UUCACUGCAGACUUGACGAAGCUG
Fewer inactive variants are shown than the library holds.
Catalogue of self-aminoacylation readings, one per entry.
I only need the number, thanks.

# example entries with known answers
CUACGUCAAACAAUCGGUCUC [Fam1A.1 aminoacylation ribozyme variant]: 1.24
CUACUUCAAACAAUUAGUCUG [Fam1A.1 aminoacylation ribozyme variant]: 1.04
AUUACCCCGGUCAUCGAGUUA [Fam2.1 aminoacylation ribozyme variant]: 1.74

API: the following record is the query input.
Memo: CUACUUCAAACAAUUGGCCUG [Fam1A.1 aminoacylation ribozyme variant] , reported self-aminoacylation: 2.28

---

In this section we review reported self-aminoacylation values for a set of sequences.
system: biotinyl-Leu-oxazolone; test: self-aminoacylation, catalytic enhancement (BLO) (fold over background); higher = more active; k-Seq, kA / k0A0; sequences stand for … in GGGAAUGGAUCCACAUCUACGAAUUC…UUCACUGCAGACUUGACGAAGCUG
This sample holds only a part of the variants without activity.
Please give the numeric answer without any surrounding text.

AUGCACCUAGGUGAUCGGGUG [Fam2.2 aminoacylation ribozyme variant]: 5.11
ACUCAUCUAGGUCAUCGGGUG [Fam2.2 aminoacylation ribozyme variant]: 6.97

Quick note, self-aminoacylation for AAGUUUGCUAAUAGACGCGAG [Fam3.1 aminoacylation ribozyme variant] landed at 0.619

// self-aminoacylation value for AUACUUCAAACAAUCGGUCAG [Fam1A.1 aminoacylation ribozyme variant] : 0.728

Looking up CACCUUCAAACAAUCGGUCUG [Fam1A.1 aminoacylation ribozyme variant] , I found its self-aminoacylation recorded as 2.61

# self-aminoacylation (sequence: AUUCACCUAUUUCAUCGGGUG [Fam2.2 aminoacylation ribozyme variant] ) is 3.49

---

tested on: biotinyl-Ile-oxazolone; experiment: self-aminoacylation, catalytic enhancement (BIO) (fold over background); higher = more active; k-Seq, kA / k0A0; sequences stand for … in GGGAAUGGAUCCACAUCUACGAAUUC…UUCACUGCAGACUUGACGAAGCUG
This sample holds only a part of the variants without activity.
Endpoint Label: self-aminoacylation

CCACACGUCAGGCAAUCGGUC [Fam1B.1 aminoacylation ribozyme variant]: 1.38
CCACACUUCAAGCAAUCAGUU [Fam1B.1 aminoacylation ribozyme variant]: 1.15
AUUACCCCGGUCAUGGAGUGA [Fam2.1 aminoacylation ribozyme variant]: 2.92

// sequence AAGUUUGCUAAUUGUCGCCAG [Fam3.1 aminoacylation ribozyme variant] , assay biotinyl-Ile-oxazolone, self-aminoacylation value: 1.49

Here CCACACUUCAAGCAUGCGGUC [Fam1B.1 aminoacylation ribozyme variant] was tested on biotinyl-Ile-oxazolone, and its self-aminoacylation came to 1.41

Considering AUUACUCUGUUCAUCGAGUGA [Fam2.1 aminoacylation ribozyme variant] , its self-aminoacylation with biotinyl-Ile-oxazolone was recorded as 1.9

GET /values?item= CCACACAUCAAGCAAUGGGUC [Fam1B.1 aminoacylation ribozyme variant] &system= biotinyl-Ile-oxazolone returns self-aminoacylation: 1.08

Here AUCACCCUGUUCAUCGAGUGA [Fam2.1 aminoacylation ribozyme variant] was tested on biotinyl-Ile-oxazolone, and its self-aminoacylation came to 2.85

Item: AAGUUUGCUAAAAGUCGCUAG [Fam3.1 aminoacylation ribozyme variant] | System: biotinyl-Ile-oxazolone | self-aminoacylation: 0.911

---

tested on: biotinyl-Phe-oxazolone; assay: self-aminoacylation, catalytic enhancement (BFO) (fold over background); higher = more active; k-Seq, kA / k0A0; sequences stand for … in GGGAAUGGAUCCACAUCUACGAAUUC…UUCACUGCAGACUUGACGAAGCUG
Fewer inactive variants are shown than the library holds.
Each entry below carries its reported self-aminoacylation.
Could you respond with only the numeric value?

# annotated cases, reported self-aminoacylation shown
CCAUACUUCAAGCAAUGGGUC [Fam1B.1 aminoacylation ribozyme variant]: 0.918
AUUACCCUGGUCAUCGUGCGA [Fam2.1 aminoacylation ribozyme variant]: 9.74
CCAUACUUCAAGAAAUCGGUC [Fam1B.1 aminoacylation ribozyme variant]: 5.18
CCACACUUCGAGCAAUCGGCC [Fam1B.1 aminoacylation ribozyme variant]: 7.13
CUACUUCAAAGAAUCAGUCUG [Fam1A.1 aminoacylation ribozyme variant]: 3.34

Looking up AUUCACCUAGGUCAUCGAGUU [Fam2.2 aminoacylation ribozyme variant] , I see its self-aminoacylation listed as 7.47

Recorded self-aminoacylation (sequence AUUCCCCUUGGUCAUCGGGUG [Fam2.2 aminoacylation ribozyme variant] ): 165

So for AUACCCCUGGUCAUCGAGUGA [Fam2.1 aminoacylation ribozyme variant] , the logged self-aminoacylation turned out to be 7.63

// sample CAGUUUGAUAAUAGUCGCAAG [Fam3.1 aminoacylation ribozyme variant] , its self-aminoacylation was 1.89

In plain terms, GUACUUCAAACAAACGGUCUG [Fam1A.1 aminoacylation ribozyme variant] has a documented self-aminoacylation of 1.72

# self-aminoacylation of CAACUUCAAACAAUCGGUAUG [Fam1A.1 aminoacylation ribozyme variant] = 33.3

For reference, reported self-aminoacylation for AUUACGCUGGUCGUCGAGUGA [Fam2.1 aminoacylation ribozyme variant] stands at 4.94
